- Test Method Notes: in vitro
- Particulars: human, HEK293 cells (Flp-In-293), HEK293 viability, Dose 3.13 µM
Attribute: viability at 2 days, 3.13 µM
Kindly provide the numeric value in % only, without the unit symbol.

>>> meas_value("Nc1nc2ccccc2n1Cc1ccc(Cl)cc1")
94.2

For reference, reported viability at 2 days, 3.13 µM for `Clc1ccc(OCCn2cnc3ccccc32)c(Cl)c1` stands at 100

Reported viability at 2 days, 3.13 µM ( `CCc1cc(OCCn2cnc3ccccc32)ccc1Cl` ) = 91.4

Entry under test: Cc1ccc(C(C)C)c(OCC(O)Cn2cnc3ccccc32)c1 (stereo not drawn) . Its viability at 2 days, 3.13 µM was 90.1

Value of viability at 2 days, 3.13 µM reported for the compound `FC(F)(F)c1cccc(OCCCCn2cnc3ccccc32)c1` is 99.3

`Cc1nc2ccccc2n1Cc1ccc(Cl)c(Cl)c1` has a reported viability at 2 days, 3.13 µM of 100
